Target: Ba/F3 EGFR L858R/C797S mutants (Homo sapiens, UniProt P00533, C797S/L858R, cells depend on it)
Sequence (P00533 whole entry C797S/L858R): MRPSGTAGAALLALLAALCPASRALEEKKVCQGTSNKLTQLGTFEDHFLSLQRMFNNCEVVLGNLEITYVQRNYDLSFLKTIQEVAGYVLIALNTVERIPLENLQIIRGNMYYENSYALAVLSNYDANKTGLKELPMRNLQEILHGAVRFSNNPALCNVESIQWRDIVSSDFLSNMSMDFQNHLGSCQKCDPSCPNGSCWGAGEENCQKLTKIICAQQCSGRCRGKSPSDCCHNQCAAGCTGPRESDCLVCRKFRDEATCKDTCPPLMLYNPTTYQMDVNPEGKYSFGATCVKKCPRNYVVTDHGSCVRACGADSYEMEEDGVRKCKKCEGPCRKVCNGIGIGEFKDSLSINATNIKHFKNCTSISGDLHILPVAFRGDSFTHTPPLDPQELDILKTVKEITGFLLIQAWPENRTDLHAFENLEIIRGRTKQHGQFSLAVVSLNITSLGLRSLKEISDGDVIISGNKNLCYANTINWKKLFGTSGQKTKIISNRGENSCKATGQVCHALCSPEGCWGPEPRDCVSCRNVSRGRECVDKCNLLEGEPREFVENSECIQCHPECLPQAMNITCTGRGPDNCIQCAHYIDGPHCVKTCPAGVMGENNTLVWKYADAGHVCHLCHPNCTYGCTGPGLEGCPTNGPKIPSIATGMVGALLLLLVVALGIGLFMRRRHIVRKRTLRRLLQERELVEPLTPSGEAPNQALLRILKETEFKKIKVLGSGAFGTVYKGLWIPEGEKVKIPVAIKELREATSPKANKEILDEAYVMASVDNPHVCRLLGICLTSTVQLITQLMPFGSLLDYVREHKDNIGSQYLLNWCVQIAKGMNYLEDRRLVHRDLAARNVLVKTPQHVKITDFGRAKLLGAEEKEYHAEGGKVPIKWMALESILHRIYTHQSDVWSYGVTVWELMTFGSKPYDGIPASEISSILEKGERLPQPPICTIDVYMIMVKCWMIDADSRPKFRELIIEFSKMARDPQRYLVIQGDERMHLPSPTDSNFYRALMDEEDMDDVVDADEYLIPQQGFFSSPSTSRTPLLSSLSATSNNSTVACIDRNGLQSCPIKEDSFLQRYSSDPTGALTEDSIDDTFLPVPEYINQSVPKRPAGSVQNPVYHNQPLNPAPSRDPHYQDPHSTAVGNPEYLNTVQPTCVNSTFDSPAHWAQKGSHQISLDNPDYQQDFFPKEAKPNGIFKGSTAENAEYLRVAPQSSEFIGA
Experiment: CellTiter-Glo cell viability, Ba/F3 EGFR L858R/C797S cells
Assay type: cell-based, murine
Settings: 72 hours, read-out: Ba/F3 EGFR mutant cell (IC50, nM) L/C
Threshold 60 nM. GI50 below it: 1 (yes). GI50 at it or above: 0 (no).

{"smilesRepresentation": "COc1ccc(Nc2nc(Nc3cc(C)c(N4CCC(N5CCN(C)CC5)CC4)cc3OC)ncc2Cl)c(NS(C)(=O)=O)c1", "discreteLabel": "1 (yes)"}
{"smilesRepresentation": "CCc1cc(Nc2ncc(Cl)c(Nc3ccc4nccnc4c3NS(C)(=O)=O)n2)c(OC)cc1N1CCC(N2CCCC2)CC1", "discreteLabel": "1 (yes)"}
{"smilesRepresentation": "COc1cc(N2CCC(N3CCN(C)CC3)CC2)c(C)cc1Nc1ncc(Br)c(Nc2ccc3nccnc3c2NS(C)(=O)=O)n1", "discreteLabel": "1 (yes)"}
{"smilesRepresentation": "CN[C@@H]1CN(c2ccc(Nc3ncc(Cl)c(Nc4ccc5nccnc5c4NS(C)(=O)=O)n3)c(OC)c2)C[C@H]1F", "discreteLabel": "0 (no)"}
{"smilesRepresentation": "CCc1cc(Nc2ncc(Cl)c(Nc3ccc4c(c3N(C)S(C)(=O)=O)OCCO4)n2)c(OC)cc1N1CCC(N2CCOCC2)CC1", "discreteLabel": "1 (yes)"}
{"smilesRepresentation": "CCc1cc(Nc2ncc(Br)c(N(C)c3ccc4nccnc4c3N(C)S(C)(=O)=O)n2)c(OC)cc1N1CCC(N(C)C)CC1", "discreteLabel": "0 (no)"}
{"smilesRepresentation": "CCc1cc(Nc2ncc(Br)c(Nc3ccc4nccnc4c3NS(C)(=O)=O)n2)c(OC)cc1N1CCC(N(C)C)CC1", "discreteLabel": "0 (no)"}
{"smilesRepresentation": "COC(=O)Nc1c(Nc2nc(Nc3ccc(C4CCNCC4)cc3OC)ncc2Cl)ccc2nccnc12", "discreteLabel": "0 (no)"}
